B1: Protein S100-G, P02633 (parent)
chain: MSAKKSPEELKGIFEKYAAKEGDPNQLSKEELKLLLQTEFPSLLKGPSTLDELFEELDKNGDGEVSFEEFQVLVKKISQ

Variants of: B1
Conditions: Bos taurus; pH 7; 25 °C; Urea; CD; Potassium phosphate 10 mM; structure 1IGV; whole UniProt chain shown
Record TRUE whenever ddG of mutation (higher = less stable) is at 4 kcal/mol or higher; record FALSE when lower.

>  <variant.identifier>
L27A

>  <answer.label>
FALSE

$$$$
>  <variant.identifier>
F14A

>  <answer.label>
TRUE

$$$$
>  <variant.identifier>
F70A

>  <answer.label>
TRUE

$$$$
>  <variant.identifier>
L27G

>  <answer.label>
TRUE

$$$$
>  <variant.identifier>
F70W

>  <answer.label>
FALSE

$$$$
>  <variant.identifier>
V74L

>  <answer.label>
FALSE

$$$$
>  <variant.identifier>
L32A

>  <answer.label>
FALSE

$$$$
>  <variant.identifier>
V65G

>  <answer.label>
TRUE

$$$$
>  <variant.identifier>
I77V

>  <answer.label>
FALSE

$$$$
>  <variant.identifier>
V65A

>  <answer.label>
FALSE

$$$$
>  <variant.identifier>
L10V

>  <answer.label>
FALSE

$$$$
